Every entry's value here was drawn from PubChem BioAssay AID588511.

Target: Anoctamin-1 (Mus musculus)
Experiment: blockers of mouse ANO1 Ca-activated Cl channel – cell-based, HTS, primary screen (AID 588511)
Details: HEK293 TMEM16A/YFP iodide influx fluorescence, ionomycin; at 10 µM
Screen size: about 310,000 compounds; about 3,600 (1.2%) were called active.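 The calls were made as follows: active = ratio plate-corrected score three or more library SD toward inhibition, starting fluorescence score within five deviations; inactive = the rest.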 Shown is part of a subset that was picked to be rich in actives.
Outcome codes: active, inactive

{"Molecule": "COC(=O)c1ccc(COC(=O)C2CCN(S(=O)(=O)c3c(Cl)cccc3Cl)CC2)o1", "Cat": "inactive"}
{"Molecule": "Cc1ccc(C2C3=C(Nc4[nH]n(-c5ccccc5)c(=O)c42)c2ccccc2C3=O)cc1 (centres undefined)", "Cat": "inactive"}
{"Molecule": "CC(C(=O)Nc1ccccc1-c1ccccc1)N1CCOCC1 (centres undefined)", "Cat": "inactive"}
{"Molecule": "CCOC(=O)C1=C(c2ccc(OC)cc2)C(=O)c2ccccc2C1=O", "Cat": "inactive"}
{"Molecule": "Fc1ccc2[nH]c3c(N4CCSCC4)ncnc3c2c1", "Cat": "active"}
{"Molecule": "NS(=O)(=O)c1ccc(N=Cc2ccc(Br)s2)cc1", "Cat": "inactive"}
{"Molecule": "O=C1NCCn2nc3ccccc3c21", "Cat": "inactive"}
{"Molecule": "Cc1cccc(N)c1SC1CCCCC1O (centres undefined)", "Cat": "inactive"}
{"Molecule": "Oc1cc2c(cc1O)CN(C(=S)NCCc1ccc(Cl)cc1)CCC2", "Cat": "active"}
{"Molecule": "CN(C)/C=N/c1cc(=O)n(C)c(=O)n1CC1CC1", "Cat": "inactive"}
{"Molecule": "CCc1cc2c(NC3CCCC3)ncnc2s1", "Cat": "inactive"}
{"Molecule": "CCc1c(C)nc(SCC(=O)NC2CCCC2)[nH]c1=O", "Cat": "inactive"}
{"Molecule": "CNC(=O)c1[nH]cnc1C(=O)N[C@@H](CC(C)C)C(=O)OC(C)(C)C", "Cat": "inactive"}
{"Molecule": "COc1ccc(C2C(C(C)=O)=C(O)C(=O)N2c2nccs2)cc1 (centres undefined)", "Cat": "inactive"}
{"Molecule": "O=C(CSc1nc(-c2ccccc2)cs1)Nc1cccc([N+](=O)[O-])c1", "Cat": "active"}
{"Molecule": "CCOc1ccc(NC(=O)c2ccccc2NS(C)(=O)=O)cc1", "Cat": "inactive"}
{"Molecule": "C#CCOCCOCCOCCNc1nc(N2CCN(C(=O)CCCCCCCCCCNC(=O)[C@H](CCCCN)n3cc(C)nn3)CC2)nc(N2CCN(C(=O)CCCCCCCCCCNC(=O)[C@H](CO)n3cc(CCCSC)nn3)CC2)n1", "Cat": "active"}
{"Molecule": "Cc1nn(-c2ccc([N+](=O)[O-])cc2)c(N)c1-c1ccccc1", "Cat": "inactive"}
{"Molecule": "COc1ccc(CN2CCNC(=O)C2CC(=O)N(C)Cc2ccccn2)cc1OC (centres undefined)", "Cat": "inactive"}
{"Molecule": "COc1cccc(C(=O)NNS(=O)(=O)c2ccc(F)cc2)c1", "Cat": "inactive"}
{"Molecule": "Cc1c(CN2CC[C@@H](N3CCN(c4ccccn4)CC3)[C@H](O)C2)[nH]c2ccc(F)cc12", "Cat": "inactive"}
{"Molecule": "COc1ccc(CCNC(=S)N2CCN(S(=O)(=O)c3ccc(Cl)cc3)CC2)cc1", "Cat": "inactive"}
{"Molecule": "COc1cccc(NC(=O)CCc2nnc3ccc(N4CCC(C)CC4)nn23)c1", "Cat": "inactive"}
{"Molecule": "O=C(O)c1ccc(-n2nc(-c3ccccc3)c3ccccc3c2=O)cc1", "Cat": "inactive"}
{"Molecule": "COC(=O)C1=C(C)NC2=C(C(=O)c3ccccc32)C1c1ccc(-c2ccc(C(=O)O)cc2)o1 (centres undefined)", "Cat": "active"}
{"Molecule": "CCNC(=O)CSc1nc(-c2ccccc2)cs1", "Cat": "inactive"}
{"Molecule": "COc1ccc(NC(=O)c2cnc(NS(=O)(=O)c3ccccc3)nc2)cc1", "Cat": "inactive"}
{"Molecule": "O=C(CSc1ncn[nH]1)Nc1nc(-c2cccc([N+](=O)[O-])c2)cs1", "Cat": "inactive"}
{"Molecule": "O=C1CC(c2ccccc2)=NN1c1ccc([N+](=O)[O-])cc1", "Cat": "active"}
{"Molecule": "O=C(NCCc1ccc(Cl)cc1)c1cccc(N2CCCC2=O)c1", "Cat": "inactive"}
{"Molecule": "COC(=O)c1ccc(CSc2ccccc2C)o1", "Cat": "inactive"}
{"Molecule": "CCc1cc2c(NC(Cc3ccccc3)C(=O)O)ncnc2s1 (centres undefined)", "Cat": "inactive"}
{"Molecule": "O=C(Nc1cccnc1)c1noc2c1CCCCC2", "Cat": "inactive"}
{"Molecule": "CCOC(=O)[C@H]1[C@H]2COc3ccc(Cl)cc3[C@@H]2N2C(=O)c3cc(C)ccc3NC(=O)[C@@]12C", "Cat": "inactive"}
{"Molecule": "COc1ccc(NC(=O)C2CCN(S(=O)(=O)c3ccc4[nH]c(=O)oc4c3)CC2)c(OC)c1", "Cat": "inactive"}
{"Molecule": "Cc1ccc(OCCCC(=O)Nc2ccc(S(=O)(=O)Nc3cc(C)nc(C)n3)cc2)cc1", "Cat": "inactive"}
{"Molecule": "Cc1ccc(N)cc1-n1c(C)ccc1C", "Cat": "active"}
{"Molecule": "CC(OC(=O)c1ccc(-n2cnnn2)cc1)C(=O)NCc1ccccc1 (centres undefined)", "Cat": "inactive"}
{"Molecule": "COC(=O)c1ccc(OC(=O)c2nn(C)cc2Cl)c(OC)c1", "Cat": "inactive"}
{"Molecule": "CNC(=O)c1[nH]cnc1C(=O)N[C@@H](CC(C)C)C(=O)OCc1ccccc1", "Cat": "active"}
{"Molecule": "Cc1cccnc1NC(=O)Cn1c(=O)oc2ccccc21", "Cat": "inactive"}
{"Molecule": "CCOC(=O)Cc1csc(NC(=O)CSc2nnc(-c3cccnc3)n2Cc2ccco2)n1", "Cat": "active"}
{"Molecule": "Cc1ccc(C)n1-c1ccncc1", "Cat": "inactive"}
{"Molecule": "Cc1cc(C)c(S(=O)(=O)c2cc(F)ccc2C)c(=O)[nH]1", "Cat": "inactive"}
